The measured values listed here are drawn from the RNAGym collection of RNA variant scans (doi:10.7554/elife.80360).

B1: CPEB3 Ribozyme (parent)
chain: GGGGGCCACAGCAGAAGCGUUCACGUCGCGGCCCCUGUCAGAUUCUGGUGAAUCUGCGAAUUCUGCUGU

variants of: B1; experiment: self-cleavage, relative activity (ratio to wild type); higher = more cleavage; co-transcriptional
Mark Condition met for reported self-cleavage of 0.3 or greater; mark Condition not met for anything smaller.

Example cases with answers are listed next.
1) GGGGGCCACAGCAGAAGCGUUCACGUCGCGGCCCCUGUCAGAUUCUGUUGAAUCUGCGAAUACUGCUGU [G48U U62A]
Condition met
2) GGGGGCGACAGCAGAAGCGUUCACGUCGCGGCCCCUGUCAGAUUCUGGUGAAUCUGCGAAUUCUGCUCU [C7G G68C]
Condition met
3) GGGGGCCUCAGCAGAAGCGUUCACGUCGCGGCACCUGUCAGAUUCUGGUGAAUCUGCGAAUUCUGCUGU [A8U C33A]
Condition met
4) GGGGGCCACAGCAGAAGCGUUCACGUAGCGGCCCCUGUCAGAUUCUGGUGAAUCUGCGAAUUUUGCUGU [C27A C63U]
Condition met
5) GGGGGCCACAUCAGAAGCGUGCACGUCGCGGCCCCUGUCAGAUUCUGGUGAAUCUGCGAAUUCUGCUGU [G11U U21G]
Condition not met
6) GGGGGCCACAGCAGAAGCGUUCACGUCGCGGCCACUGUCAGAUUCUGGUGAAUCAGCGAAUUCUGCUGU [C34A U55A]
Condition met

# next variant below
Determine whether measured self-cleavage meets or exceeds 0.3 for GGGGGCCACAGCAGAAGCGUUCACGUCGCGGCCCCUGUCAGAUUCUGGUGAAUCUGCGAAUUCUGUAGU [C66U U67A]
Condition met
